Target: full-length proMMP9(1-707) (SEQ ID NO:1) from COS-1 cells, activation by catalytic MMP3 (Homo sapiens, UniProt P14780, R574P)
Construct: E. coli (MMP3)
Sequence (P14780 20-707 R574P): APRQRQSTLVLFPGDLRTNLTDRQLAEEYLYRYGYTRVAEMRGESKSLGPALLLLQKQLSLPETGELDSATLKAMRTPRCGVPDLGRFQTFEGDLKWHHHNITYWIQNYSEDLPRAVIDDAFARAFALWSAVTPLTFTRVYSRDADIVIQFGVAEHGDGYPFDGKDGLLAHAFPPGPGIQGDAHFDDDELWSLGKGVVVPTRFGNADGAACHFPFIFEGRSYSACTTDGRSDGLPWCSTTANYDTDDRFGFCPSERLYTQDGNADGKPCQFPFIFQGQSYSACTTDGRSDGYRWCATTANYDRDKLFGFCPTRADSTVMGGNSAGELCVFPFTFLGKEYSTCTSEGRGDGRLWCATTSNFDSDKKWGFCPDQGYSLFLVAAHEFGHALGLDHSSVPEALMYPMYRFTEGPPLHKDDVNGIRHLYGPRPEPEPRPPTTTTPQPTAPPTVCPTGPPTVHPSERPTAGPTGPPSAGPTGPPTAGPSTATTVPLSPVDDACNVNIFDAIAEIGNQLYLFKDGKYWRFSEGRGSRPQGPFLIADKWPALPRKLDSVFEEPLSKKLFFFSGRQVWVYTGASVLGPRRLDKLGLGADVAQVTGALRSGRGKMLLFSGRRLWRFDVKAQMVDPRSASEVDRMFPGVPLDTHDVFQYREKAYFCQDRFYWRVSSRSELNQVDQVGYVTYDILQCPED
Test: ProMMP9/MMP3 DQ Gelatin Activation Assay
Conditions: read-out: ProMMP9/MMP3 DQ gel Activation Assay, IC50
Measurement Name: IC50 (µM)
Numbers only; they are read as µM.

Q. Please report the recorded IC50 for COc1ccc([N+](=O)[O-])cc1Nc1nc(-c2cccnc2)cs1 [Example 60] .
A. 5.5

* * *

Target: proMMP9(67-444;ΔFnII) (SEQ ID NO:5) (Homo sapiens, UniProt P14780, DEL216-390)
Construct: start methionine (N)
Sequence (P14780 with tags, fused parts or gaps DEL216-390): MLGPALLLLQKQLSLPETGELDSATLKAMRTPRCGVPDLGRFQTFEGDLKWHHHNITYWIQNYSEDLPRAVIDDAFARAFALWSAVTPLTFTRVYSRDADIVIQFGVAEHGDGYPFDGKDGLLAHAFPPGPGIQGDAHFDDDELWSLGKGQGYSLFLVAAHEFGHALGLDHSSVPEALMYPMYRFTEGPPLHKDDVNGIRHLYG
Experiment: ThermoFluor binding assay with proMMP9(67-444;ΔFnII)
Measurement Name: log10 Kd (log10 of the value in µM)
Response schema: value (number) is log10 of Kd in units of µM.

Q. Please give the measured log10 Kd for this molecule: "CC(C)Oc1ccc(S(N)(=O)=O)cc1Nc1nc(-c2ccc(C(=O)NCCN(C)C)nc2)cs1"
A. -0.89

Q. Let us now turn to "CC(C)Oc1ccc(S(N)(=O)=O)cc1Nc1nc(-c2ccc(N3CCCN(C)CC3)nc2)cs1"
A. -0.48

Q. What do you have for "COc1ccc(S(N)(=O)=O)cc1Nc1nc(-c2cccnc2)cs1" ?
A. 1.46

* * *

Target: proMMP13(1-268) (SEQ ID NO:7) (Homo sapiens, UniProt P45452)
Construct: 6xHis (C)
Experiment: ThermoFluor binding assay with proMMP13(1-268)
The label rule met is reserved for Kd strictly under 3000 nM; rule not met covers values equal to or above it.

Examples from the recorded data:
| Structure Notation | Tested Target | Category Label |
| --- | --- | --- |
| COc1ccc(-c2csc(Nc3cc(C(N)=O)ccc3OC(C)C)n2)cn1 | proMMP13(1-268) (SEQ ID NO:7) (Homo sapiens, UniProt P45452) | rule met |
| Cc1nc(C(F)(F)F)ccc1-c1csc(Nc2cc(C(N)=O)ccc2OC(C)C)n1 | proMMP13(1-268) (SEQ ID NO:7) (Homo sapiens, UniProt P45452) | rule not met |
| CC(C)Oc1ccc(C(N)=O)cc1Nc1nc(-c2ccncc2)cs1 | proMMP13(1-268) (SEQ ID NO:7) (Homo sapiens, UniProt P45452) | rule met |
| CC(C)Oc1ccc(C(N)=O)cc1Nc1nc(-c2ccc(Br)nc2)cs1 | proMMP13(1-268) (SEQ ID NO:7) (Homo sapiens, UniProt P45452) | rule met |
| CC(C)Oc1ccc(C(N)=O)cc1Nc1nc(-c2cncc(Br)c2)cs1 | proMMP13(1-268) (SEQ ID NO:7) (Homo sapiens, UniProt P45452) | rule met |

Q. Could you please tell me whether Kd recorded for "CC(C)Oc1ccc(C(N)=O)cc1Nc1nc(-c2cnccc2C(C)C)cs1" is less than 3000 nM?
A. rule not met

Q. Note, next up: "CC(C)Oc1ccc(C(N)=O)cc1Nc1nc(-c2ccnc(Cl)c2)cs1"
A. rule met

Q. Would you mind doing "CC(C)Oc1ccc(C(N)=O)cc1Nc1nc(-c2ccccn2)cs1" as well?
A. rule met

Q. Same for "CCOc1ccc(-c2ncco2)cc1Nc1nc(-c2cccnc2)cs1"
A. rule not met

* * *

Target: full-length proMMP9(1-707) (SEQ ID NO:1), activation by catalytic MMP3 (Homo sapiens, UniProt P14780, R574P)
Construct: E. coli (MMP3)
Sequence (P14780 20-707 R574P): as the sequence (P14780 20-707 R574P) above
Experiment: proMMP9/MMP3 P126 Activation Assay
Measurement Name: IC50 (nM)
Report as a plain number; the unit nM is understood.

| Compound | IC50 / nM |
| --- | --- |
| CC(C)Oc1ccc(S(N)(=O)=O)cc1Nc1nc(-c2ccc(C(=O)NC3CCN(C(C)C)CC3)nc2)cs1 [Example 88] | 330 |
| CC(C)Oc1ccc(S(N)(=O)=O)cc1Nc1nc(-c2ccc(N3CCNC(C)(C)C3)nc2)cs1 [Example 69] | 100 |
| CC(C)Oc1ccc(S(N)(=O)=O)cc1Nc1nc(-c2cccnc2)cs1 [Example 13] | 2400 |
| CC(C)Oc1ccc(S(N)(=O)=O)cc1Nc1nc(-c2ccc(C(=O)NC3CN4CCC3CC4)nc2)cs1 (centres unmarked) [Example 86] | 400 |

Q. GET /values?readout=IC50&item= CCN1CCN(c2ccc(-c3csc(Nc4cc(S(N)(=O)=O)ccc4OC(C)C)n3)cn2)CC1 [Example 38]
A. 170

* * *

Target: proMMP9(67-444;ΔFnII) (SEQ ID NO:5) (Homo sapiens, UniProt P14780, DEL216-390)
Construct: start methionine (N)
Test: ThermoFluor binding assay with proMMP9(67-444;ΔFnII)
pKd: −log10 of the molar value.
pKd of 6 or higher: yes. Under 6: no.

Past entries and their recorded results:
| Compound | Tested Target | Category Label |
| --- | --- | --- |
| CC(C)Oc1ccc(S(N)(=O)=O)cc1Nc1nc(-c2ccc(C(=O)N3CCCN(C)CC3)nc2)cs1 | proMMP9(67-444;ΔFnII) (SEQ ID NO:5) (Homo sapiens, UniProt P14780, DEL216-390) | no |
| Cc1nc(C(F)(F)F)ccc1-c1csc(Nc2cc(C(N)=O)ccc2OC(C)C)n1 | proMMP9(67-444;ΔFnII) (SEQ ID NO:5) (Homo sapiens, UniProt P14780, DEL216-390) | no |

Q. Quick check, pKd >= 6? "CC(C)Oc1ccc(S(N)(=O)=O)cc1Nc1nc(-c2ccc(C(=O)NC3CCN(C)CC3)nc2)cs1"
A. no

Q. Please do the same for COC(=O)c1ccc(-c2csc(Nc3cc(S(N)(=O)=O)ccc3OC(C)C)n2)cn1 [Intermediate 12] as well.
A. yes

Q. How about "CC(C)Oc1ccc(C(N)=O)cc1Nc1nc(-c2ccc(Br)nc2)cs1" ?
A. no

Q. Query "CC(C)Oc1ccc(S(N)(=O)=O)cc1Nc1nc(-c2ccc(N3CCNC(=O)C3)nc2)cs1" next
A. no

Q. Similarly, "CC(C)Oc1ccc(S(C)(=O)=O)cc1Nc1nc(-c2cccnc2)cs1" ?
A. no

Q. "CC(C)Oc1ccc(S(N)(=O)=O)cc1Nc1nc(-c2ccc(C(=O)N3CCNCC3)nc2)cs1" ?
A. no

Q. Subsequent entry: "CC(C)Oc1ccc(C(N)=O)cc1Nc1nc(-c2cncc(Br)c2)cs1"
A. no

Q. Proceed to "CC(C)Oc1ccc(C(N)=O)cc1Nc1nc(-c2cnccc2C(C)C)cs1"
A. no

Q. What would you report for "COC/C=C/c1ccc(-c2csc(Nc3cc(S(N)(=O)=O)ccc3OC(C)C)n2)cn1" ?
A. no

Q. What about this compound? "CC(C)Oc1ccc(S(N)(=O)=O)cc1Nc1nc(-c2ccc(N3CCNCC3)nc2)cs1"
A. yes

Q. Follow-up item: "COc1ccc(C(N)=O)cc1Nc1nc(-c2ccc(N3CCN(C)CC3)nc2)cs1"
A. no

Q. And what about the compound "CC(C)Oc1ccc(C(N)=O)cc1Nc1nc(-c2ccc(N3CCN(C)CC3)nc2)cs1" ?
A. yes

Q. Now consider "COc1ccc([N+](=O)[O-])cc1Nc1nc(-c2cccnc2)cs1" and answer again.
A. no

Q. Also "COc1ccc(CC(N)=O)cc1Nc1nc(-c2cccnc2)cs1" ?
A. no

Q. Similarly, "CC(C)Oc1ccc(S(N)(=O)=O)cc1Nc1nc(-c2ccc(C(=O)N3CCC(N(C)C)CC3)nc2)cs1" ?
A. no

* * *

Molecular target: full-length proMMP9(1-707) (SEQ ID NO:1), activation by catalytic MMP3 (Homo sapiens, UniProt P14780, R574P)
Construct: E. coli (MMP3)
Test: proMMP9/MMP3 P126 Activation Assay
// returns false unless IC50 is strictly below 1 µM, in which case true

Check out these entries, answers already filled in.
| Compound | Category Label |
| --- | --- |
| COC(=O)c1ccc(-c2csc(Nc3cc(S(N)(=O)=O)ccc3OC(C)C)n2)cn1 [Intermediate 12] | false |
| CC(C)Oc1ccc(S(N)(=O)=O)cc1Nc1nc(-c2ccc(C(=O)N3CCNCC3)nc2)cs1 | false |
| COCCNC(=O)c1ccc(-c2csc(Nc3cc(S(N)(=O)=O)ccc3OC(C)C)n2)cn1 | false |
| CC(C)Oc1ccc(S(N)(=O)=O)cc1Nc1nc(-c2ccc(N3CCCN(C)CC3)nc2)cs1 | true |
| COc1cc(C)c(C(N)=O)cc1Nc1nc(-c2ccc(N3CCN(C)CC3)nc2)cs1 | false |

Now, please, on to the next compound.
Q. Quick check: IC50 of "COc1ccc(S(N)(=O)=O)cc1Nc1nc(-c2ccc(N3CCN(C)CC3)nc2)cs1" under 1 µM?
A. false
